Test system: MDR P. aeruginosa PA253
Experiment notes: microbe, parasite or virus in culture
Assay type: cell-based, Pseudomonas aeruginosa
Setup conditions: Pseudomonas aeruginosa; conventional antibiotics; microdilution, Mueller-Hinton broth, 2–5 10^5 CFU/ml, 18 h at 37°C, read visually; at least three repeats (n = 3)
Observed property: MIC

Study these solved cases before continuing.
Compound: NCC[C@H](O)C(=O)N[C@@H]1C[C@H](N)[C@@H](O[C@H]2O[C@H](CN)[C@@H](O)[C@H](O)[C@H]2O)[C@H](O)[C@H]1O[C@H]1O[C@H](CO)[C@@H](O)[C@H](N)[C@H]1O
Measurement target: MDR P. aeruginosa PA253
MIC: 8 to 16 µM

Compound: CN(C)[C@@H]1C(O)=C(C(N)=O)C(=O)[C@@]2(O)C(O)=C3C(=O)c4c(O)cccc4[C@@](C)(O)[C@H]3C[C@@H]12
Measurement target: MDR P. aeruginosa PA253
MIC: 32 µM

Compound: C[C@@H](O)[C@H]1C(=O)N2C(C(=O)O)=C(SCCN=CN)C[C@H]12
Measurement target: MDR P. aeruginosa PA253
MIC: > 128 µM

Compound: C[C@@H](O)[C@H]1C(=O)N2C(C(=O)O)=C(S[C@@H]3CN[C@H](C(=O)N(C)C)C3)[C@H](C)[C@H]12
Measurement target: MDR P. aeruginosa PA253
MIC: > 128 µM

# evaluate next
Ask | Identify the reported MIC for the following entry. CNC(C)C1CCC(N)C(OC2C(N)CC(N)C(OC3OCC(C)(O)C(NC)C3O)C2O)O1 (centres unmarked)
Reply | > 256 µM

###

Test system: MDR P. aeruginosa PA253
Experiment notes: microbe, parasite or virus in culture
Type: cell-based, Pseudomonas aeruginosa
Setup conditions: MDR PA253, 18 h
Peptide text beside a SMILES is read from it.
Here the recorded MIC against MDR isolates of PA, PA253 is given for each entry.
Return type: number; implicit unit µM.

Compound: CC(C)[C@H](NC(=O)[C@H](Cc1c[nH]c2ccccc12)NC(=O)[C@H](CCCNC(=N)N)NC(=O)[C@H](Cc1c[nH]c2ccccc12)NC(=O)[C@H](Cc1c[nH]c2ccccc12)NC(=O)[C@H](CCCNC(=N)N)NC(=O)[C@@H](N)CCCNC(=N)N)C(=O)N[C@H](C(=O)N[C@@H](Cc1c[nH]c2ccccc12)C(N)=O)C(C)C [LOP2] (H-RRWWRWVVW-NH2)
MIC against MDR isolates of PA, PA253 / µM: 8

Ask | Identify the reported MIC against MDR isolates of PA, PA253 for the following entry. N=C(N)NCCC[C@H](NC(=O)[C@H](CCCNC(=N)N)NC(=O)[C@@H](N)Cc1ccccc1)C(=O)N[C@@H](Cc1c[nH]c2ccccc12)C(=O)N[C@@H](Cc1c[nH]c2ccccc12)C(=O)N[C@@H](CCCCN)C(=O)N[C@@H](Cc1c[nH]c2ccccc12)C(=O)N[C@@H](Cc1ccccc1)C(=O)N[C@@H](CCCCN)C(N)=O [HHC-53] (H-FRRWWKWFK-NH2)
Reply | 8

###

System: MDR P. aeruginosa PA253
Experiment notes: microbe, parasite or virus in culture
Format: cell-based, Pseudomonas aeruginosa
Setup conditions: MDR PA253, 18 h
Peptide text beside a SMILES is read from it.
Here the recorded MIC against MDR isolates of PA, PA253 is given for each entry.
Return type: number; implicit unit µM.

Study these solved cases before continuing.
Compound: CC[C@H](C)[C@H](N)C(=O)N[C@@H](CC(C)C)C(=O)N[C@@H](CCCCN)C(=O)N[C@@H](Cc1c[nH]c2ccccc12)C(=O)N[C@@H](CCCCN)C(=O)N[C@@H](CCSC)C(=O)N[C@@H](Cc1ccccc1)C(=O)N[C@@H](CCCCN)C(=O)N[C@@H](Cc1c[nH]c2ccccc12)C(=O)N[C@@H](CCCCN)C(=O)N[C@@H](Cc1c[nH]c2ccccc12)C(=O)N[C@@H](Cc1ccccc1)C(=O)N[C@@H](CCCNC(=N)N)C(N)=O [Indopt 12] (H-ILKWKMFKWKWFR-NH2)
Number: 16

Compound: CC[C@H](C)[C@H](NC(=O)[C@H](CCCNC(=N)N)NC(=O)[C@H](Cc1c[nH]c2ccccc12)NC(=O)[C@H](CC(C)C)NC(=O)[C@@H](N)CCCNC(=N)N)C(=O)N[C@H](C(=O)N[C@H](C(=O)N[C@H](C(=O)N[C@@H](CCCNC(=N)N)C(=O)N[C@H](C(=O)N[C@@H](CCCCN)C(=O)N[C@@H](CCCNC(=N)N)C(N)=O)C(C)C)[C@@H](C)CC)C(C)C)C(C)C [Sub 7] (H-RLWRIVVIRVKR-NH2)
Number: 16

Compound: CC[C@H](C)[C@H](N)C(=O)N[C@@H](CC(C)C)C(=O)N[C@@H](CCCCN)C(=O)N[C@@H](Cc1c[nH]c2ccccc12)C(=O)N[C@@H](CCCCN)C(=O)N[C@@H](CCCCN)C(=O)NCC(=O)N[C@@H](Cc1c[nH]c2ccccc12)C(=O)N[C@@H](Cc1c[nH]c2ccccc12)C(=O)N[C@@H](CCCCN)C(=O)N[C@@H](Cc1c[nH]c2ccccc12)C(=O)N[C@@H](Cc1ccccc1)C(=O)N[C@@H](CCCNC(=N)N)C(N)=O [Indopt 8] (H-ILKWKKGWWKWFR-NH2)
Number: 8

Compound: CC[C@H](C)[C@H](NC(=O)[C@@H](N)Cc1ccccc1)C(=O)N[C@@H](CCCCN)C(=O)N[C@@H](Cc1c[nH]c2ccccc12)C(=O)N[C@@H](CCCNC(=N)N)C(=O)N[C@@H](Cc1ccccc1)C(=O)N[C@@H](CCCNC(=N)N)C(=O)N[C@@H](CCCNC(=N)N)C(=O)N[C@@H](Cc1c[nH]c2ccccc12)C(=O)N[C@@H](CCCCN)C(=O)N[C@@H](CCCCN)C(=O)N[C@@H](CCCNC(=N)N)C(=O)N[C@H](C(N)=O)[C@@H](C)O [Indopt 2] (H-FIKWRFRRWKKRT-NH2)
Number: 16

# evaluate next
Ask | Identify the reported MIC against MDR isolates of PA, PA253 for the following entry. CC[C@H](C)[C@H](NC(=O)[C@H](CCCNC(=N)N)NC(=O)[C@H](C)NC(=O)CNC(=O)[C@@H](N)CCCNC(=N)N)C(=O)N[C@H](C(=O)N[C@H](C(=O)N[C@H](C(=O)N[C@@H](CCCNC(=N)N)C(=O)N[C@H](C(=O)N[C@@H](C)C(=O)N[C@@H](CCCNC(=N)N)C(N)=O)C(C)C)[C@@H](C)CC)C(C)C)C(C)C [Peptide G2] (H-RGARIVVIRVAR-NH2)
Reply | 32
